- target: cAMP-dependent protein kinase catalytic subunit alpha (Homo sapiens)
- condition-notes: at 0.1 µM
For each entry below, report its inhibition value.

Problem: Look up inhibition with cAMP-dependent protein kinase catalytic subunit alpha (Homo sapiens) for this compound: CS(=O)(=O)Nc1ccc(-c2cc(-c3ccccc3)cc(C(N)=O)c2N)cc1
Result: 0.69%

Problem: For the record CCOc1ccc2c(-c3ccnc(Nc4cc(OC)cc(C(F)(F)F)c4)n3)cnn2n1 , what value of inhibition is listed for cAMP-dependent protein kinase catalytic subunit alpha (Homo sapiens)?
Result: 0.6%

Problem: Give cAMP-dependent protein kinase catalytic subunit alpha (Homo sapiens) inhibition for Cc1cc(O)cc(C)c1/C=C/c1cncc(C(=O)OC(C)(C)C)c1
Result: 1.82%

Problem: Reported inhibition for cAMP-dependent protein kinase catalytic subunit alpha (Homo sapiens), given Fc1ccc(Nc2nccc(-c3c(-c4ccc(C(F)(F)F)cc4)nn4ncccc34)n2)cc1F ?
Result: 1.44%

Problem: Param readout = inhibition; param system = cAMP-dependent protein kinase catalytic subunit alpha (Homo sapiens); param query = FC(F)(F)CNc1nccc(-c2cnn3ncccc23)n1 ; response: value
Result: 2.98%

Problem: Quick check: inhibition on cAMP-dependent protein kinase catalytic subunit alpha (Homo sapiens), item Fc1cccc(COc2ccc(Nc3ncncc3C#Cc3ccccc3)cc2Cl)c1 ?
Result: 2.03%

Problem: Given the entry COc1cccc(Nc2nccc(-c3cnn4ncccc34)n2)c1 , what inhibition was observed with cAMP-dependent protein kinase catalytic subunit alpha (Homo sapiens)?
Result: 1.16%

Problem: Which measured inhibition belongs to NC(=O)c1ccc2c(-c3ccnc(NCCCO)n3)c(-c3ccc(F)cc3)nn2c1 , tested on cAMP-dependent protein kinase catalytic subunit alpha (Homo sapiens)?;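 note: reported value is the mean percent inhibition of PKA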
Result: 2.22%

Problem: What inhibition appears in the records for this compound with cAMP-dependent protein kinase catalytic subunit alpha (Homo sapiens)? CCn1c(-c2nonc2N)nc2cncc(C(=O)NCCNC)c21
Result: 42.5%

Problem: Notebook entry, cAMP-dependent protein kinase catalytic subunit alpha (Homo sapiens) assay: inhibition of CS(=O)(=O)Nc1ccc(-c2ccc3c(NC(=O)C4CC4)n[nH]c3c2)cc1 = ?
Result: 1.42%

====

Answer each item with its documented inhibition.
- target: Calcium/calmodulin-dependent protein kinase type II subunit alpha (Homo sapiens);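 note: reported value is a mean percent inhibition of CAMK2A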
- condition-notes: at 1 µM
Record the value in %, omitting the unit from your answer.

Problem: What does the record list as inhibition for CN(C)CCNC(=O)Nc1ccc(N(C)c2ccnc(Nc3ccc(CS(C)(=O)=O)cc3)n2)cc1 ?
Result: 4.63

Problem: Recorded inhibition for CS(=O)(=O)Nc1ccc(-c2cc(-c3ccccc3)cc(C(N)=O)c2N)cc1 , please?
Result: -1.32

Problem: Name the reported inhibition value associated with the molecule CS(=O)(=O)Nc1ccc(-c2ccc3c(NC(=O)C4CC4)n[nH]c3c2)cc1
Result: 3.84

Problem: What inhibition value was documented for this molecule, COc1cc2c(cc1Nc1nc(Nc3cccc(F)c3C(N)=O)c3cc[nH]c3n1)N(C(=O)CN1CCN(C(C)C)CC1)CC2 ?
Result: 8.11

Problem: Given the entry COc1ccc2ncn(-c3cc(O[C@H](C)c4ccccc4C(F)(F)F)c(C(N)=O)s3)c2c1 , report its measured inhibition.
Result: 0.95

Problem: // lookup inhibition for CCn1c(-c2nonc2N)nc2cncc(C(=O)NCCNC)c21
Result: -0.37

Problem: Item NS(=O)(=O)c1ccc(N/N=C2\C(=O)Nc3ccc(C(=O)NCc4ccncc4)cc32)cc1 has what recorded inhibition?
Result: 5.1

Problem: // lookup inhibition for O=C1Nc2ccccc2/C1=C1\CCc2cc(O)ccc21
Result: 8.04

Problem: Reported inhibition for c1ccc(-c2n[nH]cc2-c2ccnc(-c3ccc(OCCn4ccnc4)cc3)c2)nc1 : what is it?
Result: -1.38

Problem: Please report the recorded inhibition for Cn1c(-c2nonc2N)nc2cnccc21 .
Result: 1.59

Problem: Form field: reported inhibition of CNC(=O)c1sc(-n2cnc3cc(OC)c(OC)cc32)cc1OCc1ccccc1C(F)(F)F
Result: -0.49

Problem: Suppose we examine the molecule COC(=O)Nc1nc2ccc(Oc3ccc(NC(=O)Nc4cc(C(F)(F)F)ccc4F)cc3)cc2s1 ; what inhibition value has been reported?
Result: 0.75

Problem: Given the entry CC1=C(C(=O)Nc2ccc3[nH]ncc3c2)C(c2ccc(F)cc2)N=C(c2ccc(C(F)(F)F)nc2)N1 (stereo unspecified) , report its measured inhibition.
Result: 2.04

Problem: Any idea what its inhibition is? The molecule is CCN1CCC(C(=O)Nc2n[nH]c3nnc(-c4cccc(F)c4F)cc23)CC1
Result: -1.33

Problem: Which inhibition is listed for CC1=C(C(=O)Nc2ccc3[nH]nc(C)c3c2)C(c2ccc(C(F)(F)F)cc2)CC(=O)N1 (stereo unspecified) ?
Result: 2.9

Problem: Find the recorded inhibition belonging to c1cnn2ncc(-c3ccnc(NCCCN4CCOCC4)n3)c2c1 and report it.
Result: 6.81

Problem: Given the entry COc1c(C(N)=O)cc(-c2ccc(Cl)cc2)cc1-c1ccc(S(N)(=O)=O)cc1 , report its measured inhibition.
Result: 6.07

Problem: Bench note: what inhibition did O=C(O[C@H]1CN[C@H](C#Cc2cc3ncnc(Nc4ccc5c(cnn5Cc5ccccc5)c4)c3s2)C1)N1CCOCC1 show?
Result: -1.88

Problem: Returns the measured inhibition for the input molecule. Input: COc1cc(N2CCN(C(C)C)CC2)ccc1Nc1nc(Nc2cccc3ncccc23)c2cc[nH]c2n1
Result: 1.11

Problem: Request the reported inhibition associated with COC(=O)Nc1nc2cc(Oc3ccc(NC(=O)Nc4ccccc4)cc3)ccc2[nH]1
Result: 1.94

Problem: Quick one: inhibition of N#Cc1ccc2c(-c3ccnc(NC4CC4)n3)c(-c3ccc(F)cc3)nn2c1 ?
Result: -1.71

====

- target: BDNF/NT-3 growth factors receptor (Homo sapiens);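 note: each value is a mean percent inhibition of TrkB kinase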
- condition-notes: at 0.1 µM
quantity: inhibition (%)
Response body: numeric value in %, unit text excluded.

Problem: For Cc1cc(O)cc(C)c1/C=C/c1cncc(C(N)=O)c1 , what is its reported inhibition?
Result: 1.71

Problem: Return reported inhibition; argument: COc1ccc2ncn(-c3cc(O[C@H](C)c4ccccc4C(F)(F)F)c(C(N)=O)s3)c2c1
Result: -0.31

Problem: Query (compound): CS(=O)(=O)CCNCc1ccc(-c2ccc3ncnc(Nc4ccc(OCc5ccccc5)cc4)c3c2)o1 ; field requested: inhibition
Result: 2.66

Problem: // lookup inhibition for COc1ccc(Nc2ncc(-c3ccccc3)o2)cc1OC
Result: 2.88

Problem: What value of inhibition has been recorded for this entry: COc1ccc(-c2nn3ncccc3c2-c2ccnc(Nc3ccc(F)c(F)c3)n2)cc1
Result: 2.76

Problem: Value lookup for inhibition; key = FC(F)(F)CNc1nccc(-c2cnn3ncccc23)n1
Result: 0.64

Problem: Name the recorded inhibition for O=C(O[C@H]1CN[C@H](C#Cc2cc3ncnc(Nc4ccc(OCc5cccc(F)c5)c(Cl)c4)c3s2)C1)N1CCOCC1 .
Result: 3.03

Problem: Consider the compound shown here: CNC(=O)c1ncccc1Nc1nc(Nc2cc3c(cc2OC)CCCN3C(=O)CN(C)C)nc2[nH]ccc12 What is its recorded inhibition?
Result: 3.17

Problem: // query inhibition value for entry COc1cc2c(cc1Nc1nc(Nc3cccc(F)c3C(N)=O)c3cc[nH]c3n1)N(C(=O)CN1CCN(C(C)C)CC1)CC2
Result: -0.13

Problem: Need inhibition of O=C(Nc1n[nH]c2nnc(-c3cccnc3)cc12)C1CC1 , thanks.
Result: -0.74

Problem: So what does the record say about inhibition for NS(=O)(=O)c1ccc(N/N=C2\C(=O)Nc3ccc(C(=O)NCc4ccncc4)cc32)cc1 ?
Result: 13

Problem: What does the data say about its inhibition? Entry: CCCNc1cccc(-n2ncc3c(N/N=C/c4ccncc4)ncnc32)c1
Result: 5.18

Problem: Which inhibition reading was recorded for the compound CS(=O)(=O)CCNCc1ccc(-c2ccc3ncnc(Nc4ccc(OCc5cccc(C(F)(F)F)c5)cc4)c3c2)o1 ?
Result: 4.9

Problem: Record request: inhibition value, item COc1cccc(-n2ncc3c(N/N=C/c4ccc(C(=O)NCCN(C)C)cc4)ncnc32)c1
Result: 5.53

Problem: What value of measured inhibition is listed for O=C(O[C@H]1CN[C@H](C#Cc2cc3ncnc(Nc4ccc5c(cnn5Cc5ccccc5)c4)c3s2)C1)N1CCOCC1 ?
Result: -1.64

Problem: I'd like to know its inhibition. The compound in question is CC1=C(C(=O)Nc2ccc3[nH]nc(C)c3c2)C(c2ccc(C(F)(F)F)cc2)CC(=O)N1 (stereo unspecified)
Result: 1

Problem: For the compound shown here, CN1CCC(n2cnc(-c3ccc(F)cc3)c2-c2ccnc(NCCO)n2)CC1 , give the reported inhibition.
Result: 2.35

Problem: // query inhibition value for entry Cc1cc(O)cc(C)c1/C=C/c1cncc(C(=O)OC(C)(C)C)c1
Result: 2.88

Problem: I have this compound here, COc1cc(Nc2ncc(-c3ccccc3)o2)cc(OC)c1 , and I need its recorded inhibition.
Result: 8.32

Problem: For the compound N#Cc1cccc(Nc2ncc(-c3ccccc3)o2)c1 , what inhibition is on record?
Result: 3.16

Problem: Look up inhibition for this compound: O=C1Nc2ccccc2/C1=C1\CCc2cc(O)ccc21
Result: 28.6
